- Test system: Salmonella typhimurium
- EXPERIMENT SUMMARY: Antibacterial activity against Salmonella typhimurium IFO13245 assessed as growth inhibition at 128 to 0.002 mg/L incubated for 18 hrs at 37 degC by agar dilution method
- Format: functional, Salmonella enterica subsp. enterica serovar Typhimurium
- MEASUREMENT SETUP: Salmonella enterica, IFO13245, 18 h
OBSERVATION TYPE: MIC (µg/mL)

- SUBSTANCE SMILES: "CNC1CN(c2c(F)cc3c(=O)c(C(=O)O)cn(-c4nc(N)c(F)cc4F)c3c2C)C1"
  MIC, µg/mL: 0.077
- SUBSTANCE SMILES: "Cc1c(N2CC(N)C2)c(F)cc2c(=O)c(C(=O)O)cn(-c3nc(N)c(F)cc3F)c12"
  MIC, µg/mL: 0.061
- SUBSTANCE SMILES: "Cc1c(N2CC(NC(C)C)C2)c(F)cc2c(=O)c(C(=O)O)cn(-c3nc(N)c(F)cc3F)c12"
  MIC, µg/mL: 0.17
- SUBSTANCE SMILES: "C[C@H]1COc2c(N3CCN(C)CC3)c(F)cc3c(=O)c(C(=O)O)cn1c23.C[C@H]1COc2c(N3CCN(C)CC3)c(F)cc3c(=O)c(C(=O)O)cn1c23.O"
  MIC, µg/mL: 0.12

P. CCCNC1CN(c2c(F)cc3c(=O)c(C(=O)O)cn(-c4nc(N)c(F)cc4F)c3c2C)C1
Q. CCNC1CN(c2c(F)cc3c(=O)c(C(=O)O)cn(-c4nc(N)c(F)cc4F)c3c2C)C1
R. Cc1c(N2CC(NC(C)(C)C)C2)c(F)cc2c(=O)c(C(=O)O)cn(-c3nc(N)c(F)cc3F)c12
Provide the items ranked by increasing MIC. In plain terms: list the labels in the order you were asked to.
Q, P, R

----------
- EXPERIMENT SUMMARY: Drug excretion in Sprague-Dawley rat at 10 mg/kg, po after 24 hrs by HPLC
- Type: ADME, organism-based
- MEASUREMENT SETUP: in vivo, read-out: Drug excretion
OBSERVATION TYPE: dose excreted at 24 h (%)

Some compounds with known dose excreted at 24 h results, for comparison:
- SUBSTANCE SMILES: "Cc1c(N2CC(NC(C)C)C2)c(F)cc2c(=O)c(C(=O)O)cn(-c3nc(N)c(F)cc3F)c12"
  VAL: 92
- SUBSTANCE SMILES: "CCNC1CN(c2c(F)cc3c(=O)c(C(=O)O)cn(-c4nc(N)c(F)cc4F)c3c2C)C1"
  VAL: 69

a. CCCNC1CN(c2c(F)cc3c(=O)c(C(=O)O)cn(-c4nc(N)c(F)cc4F)c3c2C)C1
b. Cc1c(N2CC(N)C2)c(F)cc2c(=O)c(C(=O)O)cn(-c3nc(N)c(F)cc3F)c12
c. CNC1CN(c2c(F)cc3c(=O)c(C(=O)O)cn(-c4nc(N)c(F)cc4F)c3c2C)C1
Provide the items ranked by increasing dose excreted at 24 h. In plain terms: list the labels in the order you were asked to.
b, c, a
(b: 8.2%, c: 28%, a: 91%)
